test system: CV-1 cells or BT cells; assay: Cytotoxicity with graded amounts of nucleoside analog; format: cell-based; details: Cercopithecidae, cell line (CV-1 or BT) not specified
property-label: IC50

- O=Cc1cn([C@@H]2O[C@H](CO)[C@@H](O)[C@H]2O)c(=O)[nH]c1=O: > 1000 µM
